Biological target: Mesothelin (SwissProt reference Q13421-3) (Homo sapiens, UniProt Q13421 37-622)
Assay: cell-based or functional assay
IC50 (nM), HT29 meso+ cells, MTT proliferation assay reference

Please review the following examples before continuing.
Tell me measured IC50 (nM), HT29 meso+ cells, MTT proliferation assay for Example 132, conjugate of anti-mesothelin antibody MF-Ta (antibody, human IgG1, lambda, V domains shown, toxophore-linker on Lys NH, sites not given) VH: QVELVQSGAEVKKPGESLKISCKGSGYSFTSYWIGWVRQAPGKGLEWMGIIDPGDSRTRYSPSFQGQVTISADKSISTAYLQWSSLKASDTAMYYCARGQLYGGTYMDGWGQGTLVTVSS VL: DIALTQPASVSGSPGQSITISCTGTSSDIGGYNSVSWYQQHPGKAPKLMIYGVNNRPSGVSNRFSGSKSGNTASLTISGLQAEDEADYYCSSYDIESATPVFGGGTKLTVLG please.
3.3 nM

Tell me measured IC50 (nM), HT29 meso+ cells, MTT proliferation assay for Example 91, conjugate of anti-mesothelin antibody MF-Ta (antibody, human IgG1, lambda, V domains shown, toxophore-linker on Cys sulfur, sites not given) VH: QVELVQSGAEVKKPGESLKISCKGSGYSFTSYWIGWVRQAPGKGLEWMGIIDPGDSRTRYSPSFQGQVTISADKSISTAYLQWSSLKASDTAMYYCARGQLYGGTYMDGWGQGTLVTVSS VL: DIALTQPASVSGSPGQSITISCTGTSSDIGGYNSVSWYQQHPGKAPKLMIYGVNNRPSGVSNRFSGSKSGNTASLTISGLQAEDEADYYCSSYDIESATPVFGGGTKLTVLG please.
0.35 nM

Next:
Tell me measured IC50 (nM), HT29 meso+ cells, MTT proliferation assay for Example 87, conjugate of anti-mesothelin antibody MF-Ta (antibody, human IgG1, lambda, V domains shown, toxophore-linker on Lys NH, sites not given) VH: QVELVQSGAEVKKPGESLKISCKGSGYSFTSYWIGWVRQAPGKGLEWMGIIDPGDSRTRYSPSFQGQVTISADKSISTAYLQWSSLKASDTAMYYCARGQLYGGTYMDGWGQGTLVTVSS VL: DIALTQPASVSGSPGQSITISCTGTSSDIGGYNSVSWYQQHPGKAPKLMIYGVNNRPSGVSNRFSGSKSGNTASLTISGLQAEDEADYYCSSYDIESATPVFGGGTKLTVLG please.
0.9 nM
